# System: Saccharomyces cerevisiae BY4741 SeMeCo community
# methodDescription: z-score of subpopulation abundance vs DMSO median, subpopulation auxotrophic for L; higher = larger share of this subpopulation than in DMSO controls
# testConditions: 10 µM; 24 h; SM minimal medium; subpopulation (auxotrophy): L
Counter-ions that a name gives are not always drawn.
Labels assigned by z-score of subpopulation abundance range: low: < -0.3; medium: ≥ -0.3 and < 0.1; high: ≥ 0.1

C#C[C@]1(O)CC[C@H]2[C@@H]3CCC4=CC(=O)CC[C@@H]4[C@H]3CC[C@@]21CC [Levonorgestrel]
medium
Cc1ccc(S(=O)(=O)NC(=O)NN2CC3CCCC3C2)cc1 (stereo not drawn) [Gliclazide]
medium
O=C(Cn1cnnn1)N[C@@H]1C(=O)N2C(C(=O)O)=C(CSc3nncs3)CS[C@H]12 [Ceftezole sodium]
low
CCn1cc(C(=O)O)c(=O)c2cc(F)c(N3CCNCC3)nc21 [Enoxacin]
high
Nc1ccc(S(=O)(=O)NC(=O)c2ccccc2)cc1 [Sulfabenzamide]
medium
O=C(O)CCCCCCCC(=O)O [Azelaic acid]
low
CC(C)(C)C(=O)C(Oc1ccc(Cl)cc1)n1ccnc1 (stereo not drawn) [Climbazole]
low
COC(=O)C1=C(C)NC(C)=C(C(=O)OCCN2CCN(C(c3ccccc3)c3ccccc3)CC2)C1c1cccc([N+](=O)[O-])c1 (stereo not drawn) [Manidipine]
high

Band for the recorded z-score of subpopulation abundance of Cc1nc(C)c(Cl)c(O)c1Cl [Clopidol] ? high

Next compound: Cc1cc(C)nc(O)n1.O=C(Nc1ccc([N+](=O)[O-])cc1)Nc1ccc([N+](=O)[O-])cc1 [Nicarbazin] low

Okay, and CCN(CC)CCNC(=O)c1cc(Cl)c(N)cc1OC [Metoclopramide] ? medium

Then this compound: COc1cc(N)c(Cl)cc1C(=O)NC1CCN(CCCOc2ccc(F)cc2)CC1OC (stereo not drawn) [Cisapride] high

Another compound: CCN(CC)CCOc1ccc(C(=C(Cl)c2ccccc2)c2ccccc2)cc1 [Clomifene citrate] high

Follow-up entry: Clc1ccc(COC(Cn2ccnc2)c2ccc(Cl)cc2Cl)cc1 (stereo not drawn) [Econazole nitrate] low

Follow-up entry: CN1CCN(CC(=O)N2c3ccccc3C(=O)Nc3cccnc32)CC1 [Pirenzepine dihydrochloride] low

Can you handle Cc1c(S(=O)(=O)O)oc2c1C(=O)C(=O)c1c-2ccc2c1CCCC2(C)C [Tanshinone IIA sulfonate (sodium)] next? high

Now the same for CN1C2CCC1CC(OC(=O)C(O)c1ccccc1)C2 (stereo not drawn) [Homatropine Bromide] medium

Follow-up entry: Cc1cc(-n2c(=O)[nH]c(=O)n(C)c2=O)ccc1Oc1ccc(SC(F)(F)F)cc1 [Toltrazuril] medium

###

# Test system: Saccharomyces cerevisiae BY4741 SeMeCo community
# methodDescription: z-score of subpopulation abundance vs DMSO median, subpopulation auxotrophic for HUM; higher = larger share of this subpopulation than in DMSO controls
# testConditions: 10 µM; 24 h; SM minimal medium; subpopulation (auxotrophy): HUM
Structures can show the parent of a compound that is named as a salt.
measuredAttribute: z-score of subpopulation abundance
Could you keep your reply to the number by itself?

Before answering, review these 8 worked examples.
COCC1=C(C(=O)OC(C)OC(=O)OC(C)C)N2C(=O)[C@@H](NC(=O)/C(=N\OC)c3csc(N)n3)[C@H]2SC1 (stereo not given in full)
0.76
OCCN(CCO)c1nc(N2CCCCC2)c2nc(N(CCO)CCO)nc(N3CCCCC3)c2n1
-6.13
CCC[C@@H]1C[C@@H](C(=O)N[C@@H]([C@H]2O[C@H](SC)[C@H](O)[C@@H](O)[C@H]2O)[C@@H](C)O)N(C)C1 [Lincomycin Hydrochloride Monohydrate]
-0.11
Cc1cc(/C=C/c2ccc3cc(N(C)C)ccc3[n+]2C)c(C)n1-c1ccccc1
-0.73
OCc1ccc(Cl)cc1Cl
-0.47
Nc1ccc(/N=N/c2ccccc2)c(N)n1 [Phenazopyridine HCl]
-1.7
Cc1cc(-c2ccc(/N=N/c3ccc4c(S(=O)(=O)O)cc(S(=O)(=O)O)c(N)c4c3O)c(C)c2)ccc1/N=N/c1ccc2c(S(=O)(=O)O)cc(S(=O)(=O)O)c(N)c2c1O
-6.59
O=C(O)CCC(=O)Nc1ccc(S(=O)(=O)Nc2nccs2)cc1
-0.33

// z-score of subpopulation abundance lookup, key: CCCCCC(=O)O[C@]1(C(C)=O)CC[C@H]2[C@@H]3CCC4=CC(=O)CC[C@]4(C)[C@H]3CC[C@@]21C [Hydroxyprogesterone caproate] 1.38

Query CN1CCOC(c2ccccc2)c2ccccc2C1 (stereo not given) [Nefopam HCl] next -0.51

Next entry: CC(=O)OC1CC2(C)C(CC(O)C3C4(C)CCC(O)C(C)C4CCC32C)C1=C(CCC=C(C)C)C(=O)O (stereo not given) 0.82

Lookup O=C1Cc2cc(CCN3CCN(c4nsc5ccccc45)CC3)c(Cl)cc2N1 [Ziprasidone HCl] 0.81

And then CCCCOc1ccc(C(=O)CCN2CCCCC2)cc1 [Dyclonine HCl] , what is it? 0.17

Entry "C=C[C@]1(C)C[C@@H](OC(=O)CS[C@@H]2C[C@H]3CC[C@@H](C2)N3C)[C@]2(C)[C@H](C)CC[C@]3(CCC(=O)[C@H]32)[C@@H](C)[C@@H]1O" please 0.06

Repeat for the following compound: CC1(C)S[C@@H]2[C@H](NC(=O)Cc3ccccc3)C(=O)N2[C@H]1C(=O)O [Benzathine penicilline] -0.33

###

Listing: z-score of subpopulation abundance of selected compounds
# Tested on: Saccharomyces cerevisiae BY4741 SeMeCo community
# methodDescription: z-score of subpopulation abundance vs DMSO median, subpopulation auxotrophic for HM; higher = larger share of this subpopulation than in DMSO controls
# testConditions: 10 µM; 24 h; SM minimal medium; subpopulation (auxotrophy): HM
Counter-ions that a name gives are not always drawn.
Answer using only a numeral; do not append any unit.

Solved cases below.
C[C@@H](O)[C@H]1C(=O)N2C(C(=O)[O-])=C(SC3Cn4cnc[n+]4C3)[C@H](C)[C@H]12 (stereo not given in full)
0.51
C[C@]12CC[C@@H]3c4ccc(O)cc4C[C@@H](CCCCCCCCC[S+]([O-])CCCC(F)(F)C(F)(F)F)[C@H]3[C@@H]1CC[C@@H]2O (stereo not given in full)
0.9
CCN1CCCC1CNC(=O)c1cc(S(=O)(=O)CC)c(N)cc1OC (stereo not given) [Amisulpride]
-1.17
C[C@]1(COc2ccc(N3CCC(Oc4ccc(OC(F)(F)F)cc4)CC3)cc2)Cn2cc([N+](=O)[O-])nc2O1
0
COC(=O)C1=C(C)NC(C)=C(C(=O)OC(C)C)C1c1cccc2nonc12 (stereo not given)
-0.24
Nc1c(CC(=O)O)cccc1C(=O)c1ccc(Br)cc1 [Bromfenac Sodium]
-0.15

Which z-score of subpopulation abundance value is on record for CO/N=C(\C(=O)N[C@@H]1C(=O)N2C(C(=O)O)=C(CSc3nc(=O)c(O)nn3C)CS[C@H]12)c1csc(N)n1 [Ceftriaxone Sodium Trihydrate] ? -1.19

Repeat with "CN(C)CCc1c[nH]c2ccc(C[C@H]3COC(=O)N3)cc12" -1.06

Check C[C@@H](O)[C@H]1C(=O)N2C(C(=O)O)=C(S[C@@H]3CN[C@H](C(=O)N(C)C)C3)[C@H](C)[C@H]12 [Meropenem Trihydrate] too. 1.13

Repeat for the following compound: "C[C@@H](O)[C@H]1C(=O)N2C(C(=O)O)=C(SCCNC=N)C[C@H]12" 0.44

Cool, now CN(CCOc1ccc(NS(C)(=O)=O)cc1)CCc1ccc(NS(C)(=O)=O)cc1 [Dofetilide] -0.88

Another: c1ccc(C2CN3CCSC3=N2)cc1 (stereo not given) [Tetramisole HCl] -0.54

Likewise for "COc1ccc(CNc2nc(N3CCC[C@H]3CO)ncc2C(=O)NCc2ncccn2)cc1Cl" ? 0.22

Quick one: "CO/N=C(\C(=O)N[C@@H]1C(=O)N2C(C(=O)OCOC(=O)C(C)(C)C)=C(/C=C\c3scnc3C)CS[C@H]12)c1csc(N)n1" 1.45

Note, next up: CO/N=C(\C(=O)N[C@@H]1C(=O)N2C(C(=O)O)=C(CSc3nc(C)c(CC(=O)O)s3)CS[C@H]12)c1csc(N)n1 [Cefodizime Sodium] -0.46

###

# Test system: Saccharomyces cerevisiae BY4741 SeMeCo community
# methodDescription: mean cell size (pixel area) (pixels); higher = larger cells
# testConditions: 10 µM; 24 h; SM minimal medium
Structures can show the parent of a compound that is named as a salt.
measuredAttribute: mean cell size
The answer should be written as a number, with no unit following it.

Field request: mean cell size | item: CN(C)C(=O)COC(=O)Cc1ccc(OC(=O)c2ccc(NC(=N)N)cc2)cc1 [Camostat Mesilate] 12.5

Field entry: COCCOC(=O)C1=C(C)NC(C)=C(C(=O)OC/C=C/c2ccccc2)C1c1cccc([N+](=O)[O-])c1 (configuration not stated) 12.3

One more compound: O=C1N=C(O)NC1(c1ccccc1)c1ccccc1 [Phenytoin Sodium] 12.5

Same read-out for COc1cc(NS(=O)(=O)c2ccc(N)cc2)nc(OC)n1 [SulfadiMethoxine sodium] ? 12.4

CN(C)[C@@H]1C(O)=C(C(N)=O)C(=O)[C@@]2(O)C(O)=C3C(=O)c4c(O)ccc(Cl)c4[C@@](C)(O)[C@H]3C[C@@H]12 [Chlortetracycline HCl] ? 12.4

Now this one: CN1CCN(CC(=O)N2c3ccccc3C(=O)Nc3cccnc32)CC1 [Pirenzepine dihydrochloride] 12

What about "Cc1nnc(SCC2=C(C(=O)O)N3C(=O)[C@@H](NC(=O)Cn4cc(Cl)c(=O)c(Cl)c4)[C@H]3SC2)s1" ? 12.5

These data points were gathered from the supplement of paper PMC8975748.
